target: VTCN1, Q7Z7D3
Sequence (Q7Z7D3 whole entry): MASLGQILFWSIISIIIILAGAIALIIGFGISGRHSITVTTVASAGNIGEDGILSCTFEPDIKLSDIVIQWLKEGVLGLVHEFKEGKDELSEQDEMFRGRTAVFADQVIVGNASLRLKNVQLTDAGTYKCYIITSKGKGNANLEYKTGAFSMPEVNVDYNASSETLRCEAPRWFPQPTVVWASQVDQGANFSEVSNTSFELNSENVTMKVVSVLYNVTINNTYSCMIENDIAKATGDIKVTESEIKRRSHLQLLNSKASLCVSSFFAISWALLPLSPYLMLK
TEST READOUT: binding in a display sort

binder="design_606_b60ff77f-1541-4e5f-8260-46d5e5f6b85e_724_dldesign_0_cycle1_af2pred (protein) AAAQKAAEAAATLYENSNEAIWLAKKEGAKGAVEGKKLLEKGVAAAEAAAKEASPEDAAKLKKLAESRKERTEKAIKKALA" endpoint_result="not found (inactive)"
binder="design_608_fd41b8f9-4da9-4c78-93ec-aaa316ed4933_615_dldesign_0_cycle1_af2pred (protein) DPAEELAKKLLEIADLAAKPETLEKALEEAEKLKEEALKLAEKYADDPALKKKYLKAAKTAESFIEDIKRSKEL" endpoint_result="not found (inactive)"
binder="design_605_6ebdab39-eaab-4492-afcb-164e20c3b25e_2390_dldesign_0_cycle1_af2pred (protein) AAEKLKEKVEKIKKEAEEKAKKAKTKEEAAKIYREGAEKIRKLATEALKKDPSVEPAVKYGSKVAAELREKAAELDVLANRE" endpoint_result="not found (inactive)"

Recorded values, source paper PMC13494018.
